Here, each record is paired with measured huEGFR^+ mcl-1^-/- MEF EC50 data.
System Under Test: human Epidermal Growth Factor Receptor (huEGFR) over-expressed in mcl-1-/- mouse embryonic fibroblasts (human, UniProt P00533 25-1210)
Assay Details: cell-based or functional assay
Quantity Name: huEGFR^+ mcl-1^-/- MEF EC50 (nM)

# Binder, Value
records = [
    ("AbG-TX (antibody, V domains shown, synthon TX on reduced interchain Cys) VH: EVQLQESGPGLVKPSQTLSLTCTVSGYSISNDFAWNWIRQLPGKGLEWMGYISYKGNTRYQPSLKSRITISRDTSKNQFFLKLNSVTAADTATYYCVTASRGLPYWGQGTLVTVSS VL: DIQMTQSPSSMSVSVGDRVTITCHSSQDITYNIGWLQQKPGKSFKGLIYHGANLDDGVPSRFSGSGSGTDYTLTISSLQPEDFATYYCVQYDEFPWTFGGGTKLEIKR", 5.3),
    ("AbK-CZ (antibody, V domains shown, synthon CZ on reduced interchain Cys) VH: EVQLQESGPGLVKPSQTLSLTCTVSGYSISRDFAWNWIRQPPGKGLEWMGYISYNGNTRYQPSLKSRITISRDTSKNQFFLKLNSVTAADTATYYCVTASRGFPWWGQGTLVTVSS VL: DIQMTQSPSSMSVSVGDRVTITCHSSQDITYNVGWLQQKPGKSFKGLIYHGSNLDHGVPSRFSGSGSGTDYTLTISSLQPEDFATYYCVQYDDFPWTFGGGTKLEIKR", 0.1),
    ("AbA-LB (antibody, V domains shown, synthon LB on reduced interchain Cys) VH: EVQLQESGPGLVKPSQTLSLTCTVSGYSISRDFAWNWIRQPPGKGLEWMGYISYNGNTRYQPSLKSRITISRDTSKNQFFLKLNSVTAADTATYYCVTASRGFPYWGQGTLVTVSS VL: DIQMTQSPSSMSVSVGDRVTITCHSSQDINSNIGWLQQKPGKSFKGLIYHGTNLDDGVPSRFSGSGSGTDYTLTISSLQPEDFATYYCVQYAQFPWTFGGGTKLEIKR", 27),
]
